B1: POU domain, class 6, transcription factor 2, residues 609 to 663; numbered along this chain, P78424 (parent)
chain: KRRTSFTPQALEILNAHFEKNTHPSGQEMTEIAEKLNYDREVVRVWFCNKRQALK

Variants of: B1
Assay: abundance fitness (aPCA) (normalised: wild type 0, dead -1); higher = more abundant; growth selection in yeast, the domain comes from the species named
Details: Homo sapiens
Cut-off -0.09 on abundance fitness, inclusive. At or above means MET; below means NOT MET.

Some solved entries appear below for comparison.
> print(dat)
   mutation.annotation  class.name
1                 Q52E         MET
2                 I13W     NOT MET
3                  R2I         MET

IN: Please check the record `E28D` and state if its abundance fitness is at or above -0.09.
OUT: MET
